B1: SLC22A15 (parent)
chain: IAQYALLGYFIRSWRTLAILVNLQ

Variants of: B1
Test Name: protein stability index of a GFP-peptide fusion (GPS, HEK-293T) (PSI 1-6); higher = more stable;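 note: lentivirally expressed fusions sorted by FACS into six bins by GFP to DsRed ratio, PSI derived from sequencing read proportions per bin multiplied by bin number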
Measurement Context: c terminus: a fixed tail appended

Variant	protein stability index
N22H	2.27
F10E	4.46
N22R	1.22
A18Y	3.11
L7N	3.3
I11L	2.34
Y4E	3.39
R12K	2.95
G8S	3.52
L23V	4.42
V21H	2.69
V21P	3.37
V21N	2.8
G8E	1.83
N22D	3.52
R15G	4.28
T16C	4.17
L23S	3.76
Y9D	2.57
V21I	4.67
A18G	3.28
Q24V	2.92
R15H	2.65
Y9K	1.29
Q24E	3.5
S13T	3.14
R12P	2.67
G8M	3.1
Q24A	4.01
F10Q	3.4
R15I	3.23
T16S	3.05
V21S	2.08
S13Y	2.3
L6F	2.34
A5G	3.8
W14T	2.6
I11C	2.6
Y9A	1.47
L17I	2.52
R12Y	3.46
N22F	2.84
T16G	2.8
I11T	3.02
I11A	2.96
L23P	2.52
A2H	2.48
Q24W	2.37
S13P	2
R15L	2.95
I1D	2.92
T16Q	3.17
L23D	3.83
F10H	3.27
Q24P	3.8
V21D	2.85
L6K	2.31
W14G	3.14
A18C	2.44
Q3K	1.96
T16L	2.43
R12W	2.88
R15T	4.03
L7S	3.26
I19V	2.96
G8C	2.42
Q3H	2.13
R15A	2.1
S13A	2.29
V21F	2.86
L23E	2.25
Q24M	2.6
A2K	2.18
L20S	3.12
V21K	2.38
I11P	2.1
G8P	1.82
A18K	1.91
R15N	3.78
G8K	1.71
S13R	3.53
R15D	4.08
I11Q	2.14
G8H	2.21
A5K	2.1
R15K	3.15
N22Q	3.36
Q24Y	2.82
A2R	3.65
L6R	4.15
T16M	3.23
